Overview of recorded ratio of surfactant to biocide where synergy was observed for various compounds
Tested on: any organism tested
Assay: Synergy index test, summary statements over the organisms tested
Assay type: cell-based
Conditions: combination with Surf. D; not commercially relevant (less biocide relative to surfactant)

Example entries and their recorded answers appear below.
CPD_SMILES: CCCCCCCCn1sccc1=O
TEST_RESULT: 1:0.2 or greater
--
CPD_SMILES: Cn1sc2ccccc2c1=O
TEST_RESULT: 1:0.05 or worse
--
CPD_SMILES: CCCCCCCCCC[N+](C)(C)CCCCCCCCCC.[Cl-]
TEST_RESULT: 1:0.2 or greater

With those in mind, consider the next compound.
Request: Quick one: ratio of surfactant to biocide where synergy was observed for CCCCNC(=O)OCC#CI ?
Result: 1:0.05 or worse
